Test system: SF-295 CNS
Assay: NCI tumour cell line growth inhibition, 48 h
Reported TGI values follow for various molecules
EXPERIMENTAL_READOUT: TGI

[[record]]
molecule = "COC(=O)[C@@H](NC(=O)[C@H](N)Cc1ccc(N(CCCl)CCCl)cc1)C(C)C"
assay_value = "> 100 µM"

[[record]]
molecule = "O=c1cc(-c2ccccc2)oc2cc(OCCCCCN3CCOCC3)cc(O)c12"
assay_value = "> 100 µM"

[[record]]
molecule = "O=c1oc2ccccc2c(O)c1C(c1cccc(C(c2c(O)c3ccccc3oc2=O)c2c(O)c3ccccc3oc2=O)c1)c1c(O)c2ccccc2oc1=O"
assay_value = "> 100 µM"

[[record]]
molecule = "COc1ccc(C2Oc3c(cccc3-c3c(-c4ccc(O)cc4)oc4cc(O)cc(O)c4c3=O)C(=O)C2O)cc1O (centres undefined)"
assay_value = "> 100 µM"


###

Reported TGI values follow for various molecules
Test system: HCT-15 colon
Assay: NCI tumour cell line growth inhibition, 48 h
EXPERIMENTAL_READOUT: TGI

[[record]]
molecule = "COc1cc(NCCC(=O)O)c2ncccc2c1"
assay_value = "> 100 µM"

[[record]]
molecule = "Cc1nc2sc(C(=O)Nc3ccccc3)c(N)c2cc1C(O)c1ccccc1 (stereo not given)"
assay_value = "> 100 µM"

[[record]]
molecule = "COc1cccc(N2CCN(c3ncnc4cc[nH]c34)CC2)c1"
assay_value = "> 100 µM"

[[record]]
molecule = "COCCNCc1ccc(-c2cc3nccc(Oc4ccc(NC(=O)C5(C(=O)Nc6ccc(F)cc6)CC5)cc4F)c3s2)nc1"
assay_value = "4.57 µM"

[[record]]
molecule = "CCCS(=O)c1nc(COC(=O)NC)c(COC(=O)NC)n1C (stereo not given)"
assay_value = "> 100 µM"

[[record]]
molecule = "O=[N+]([O-])c1cccc(S(=O)(=O)N/N=C/c2cc(I)cc([N+](=O)[O-])c2O)c1"
assay_value = "65.5 µM"

[[record]]
molecule = "COc1ccc(/C=C2\\Sc3nnc(-c4ccccc4)n3N=C2c2cc(F)c(Cl)cc2Cl)cc1OC"
assay_value = "> 100 µM"

[[record]]
molecule = "O=C(O/N=c1/ccc(=O)/c(=N\\OC(=O)c2ccccc2)c1=O)c1ccccc1"
assay_value = "> 100 µM"

[[record]]
molecule = "COc1c(-c2ccc3c(c2)OCO3)oc2cc(O)cc(O)c2c1=O"
assay_value = "> 100 µM"

[[record]]
molecule = "COc1ccc(/C=C2\\COc3ccc(O)c(O)c3C2=O)cc1OC"
assay_value = "5.73 µM"

[[record]]
molecule = "O=C(Sc1n[nH]c(=O)[nH]c1=O)c1cccc2nc3ccccc3nc12"
assay_value = "> 100 µM"

[[record]]
molecule = "CCOC(=O)C(=O)Nc1c(C)cccc1C(C)(C)C"
assay_value = "> 100 µM"

[[record]]
molecule = "C=C1CCC2[C@](C)(CCC[C@]2(C)C(=O)O)[C@@H]1CCc1ccoc1 (stereo not given in full)"
assay_value = "> 100 µM"

[[record]]
molecule = "Cc1ccc(C2[C@H]3C(=O)N(c4ccc(Cc5ccc(N6C(=O)[C@@H]7ON(c8ccccc8)C(c8ccc(C)cc8)[C@@H]7C6=O)cc5)cc4)C(=O)[C@H]3ON2c2ccccc2)cc1 (stereo not given in full)"
assay_value = "> 100 µM"

[[record]]
molecule = "CC(NP(=O)(c1ccccc1)c1ccccc1)c1ccccc1 (stereo not given)"
assay_value = "> 100 µM"

[[record]]
molecule = "COC(=O)c1ccc(NC(=O)c2ccc(NC3=C(Cl)C(=O)N(Cc4ccccc4)C3=O)cc2)cc1"
assay_value = "27.7 µM"

[[record]]
molecule = "O=C1C[C@@H]2[C@@H](c3ccccc3)[C@@H]3C(=O)c4ccccc4NC(=O)[C@H]3[C@]2(O)c2ccccc2N1"
assay_value = "> 100 µM"

[[record]]
molecule = "CCOC(=O)[C@@H]1ON2O[C@@H](OC3CCCCC3c3ccccc3)C[C@H]3OC(=O)[C@@H]1C32 (stereo not given in full)"
assay_value = "> 100 µM"

[[record]]
molecule = "CCCCCN(CCCCC)C(=O)[C@H](CCC(=O)O)NC(=O)c1cc2ccccc2[nH]1"
assay_value = "> 100 µM"

[[record]]
molecule = "COc1ccc(-c2c(-c3ccccc3)c(C)nc3[nH]c(=S)[nH]c(=S)c23)cc1OC"
assay_value = "> 100 µM"

[[record]]
molecule = "CN(C)CCNC(=O)c1cccc2c1Oc1cccc([N+](=O)[O-])c1O2"
assay_value = "> 100 µM"

[[record]]
molecule = "NNC(=O)CCc1ccc2ccc3ccccc3c2c1"
assay_value = "> 100 µM"

[[record]]
molecule = "Cc1ccnc2c(NC(C)CCCN)cc(O)c(O)c12 (stereo not given)"
assay_value = "> 100 µM"

[[record]]
molecule = "CCCCCCc1cc2cc(-c3cn4c(n3)sc3ccccc34)c(=O)oc2cc1O"
assay_value = "> 100 µM"

[[record]]
molecule = "COc1cc2c(c(OC)c1OC)C(=O)[C@@H](O)[C@H]2NC(N)=O"
assay_value = "> 100 µM"

[[record]]
molecule = "OC(CN1CCCC2CCCCC21)c1cc2ccccc2c2ccccc12 (stereo not given)"
assay_value = "9.23 µM"

[[record]]
molecule = "C[C@@H](CS[As](C)C)C(=O)N1CCC[C@H]1C(=O)O"
assay_value = "1.28 µM"

[[record]]
molecule = "O=C1c2ccn(CCCNC(CO)(CO)CO)c2C(=O)c2c1c(O)c1ccccc1c2O"
assay_value = "28.6 µM"

[[record]]
molecule = "COc1cc2c3cc1Oc1c(OC)c(OC)cc4c1[C@@H](Cc1ccc(O)c(c1)Oc1ccc(cc1)C[C@@H]3N(C)CC2)N(C)CC4"
assay_value = "27.2 µM"

[[record]]
molecule = "O=C(CSC(c1ccccc1)c1ccccc1)N/N=C/c1ccccc1Cl"
assay_value = "> 51 µM"

[[record]]
molecule = "CC(=O)O[C@@H]1C2=C(C)C3(CC3)[C@@](C)(O)C(=O)C2=C[C@@]1(C)CO"
assay_value = "10.1 µM"

[[record]]
molecule = "O=[N+]([O-])c1cccc(-c2cn3c(n2)Cc2ccccc2C3)c1"
assay_value = "> 100 µM"

[[record]]
molecule = "Cc1ccc(C)n2c1nc1cc3ccccc3cc12"
assay_value = "> 100 µM"

[[record]]
molecule = "COC(=O)c1sc2c(c1C(=O)OC)C(=NC(C)(C)C)SC2=NC(C)(C)C"
assay_value = "34.3 µM"

[[record]]
molecule = "O=C1C(Cl)=C(Nc2cc(Cl)ccc2O)C(=O)N1Cc1ccccc1"
assay_value = "32.6 µM"

[[record]]
molecule = "O=C(NCc1ccco1)C1CCN(S(=O)(=O)c2ccc(Cl)cc2)CC1"
assay_value = "> 100 µM"

[[record]]
molecule = "C[C@H](c1ccccc1)n1c(N)c(-c2nc3ccccc3s2)c2ccc([N+](=O)[O-])cc2c1=O"
assay_value = "> 75.4 µM"

[[record]]
molecule = "COc1ccc2c(C)cc(N/N=C/c3ccc(C)s3)nc2c1"
assay_value = "41.3 µM"

[[record]]
molecule = "CC(=O)OC1CC(OC2C(O)CC(OC3C(O)CC(OC4CCC5(C)C(CCC6C5CCC5(C)C(C7=CC(=O)OC7)CCC65O)C4)OC3C)OC2C)OC(C)C1OC1OC(CO)C(O)C(O)C1O (stereo not given)"
assay_value = "0.0679 µM"

[[record]]
molecule = "COC1(OC)N=C(N)C2(C#N)C(C)=C3NCN(C)N=C3C12C#N (stereo not given)"
assay_value = "> 100 µM"

